# Method summary: Circular dichroism: degree of helicity (free, SUVs, micelles, TFE)
# Measurement conditions: percent helicity of peptide-micelle complexes
Where no end group is shown, it is not given here. [ ]: non-standard residue; d: D form. Aib = CC(C)(N)C(=O)O
Measured He (%) mics, listed per entry.
Your answer is read as %, so omit the unit and give the number.

Here are 3 substances together with their reported answers.
INSERT INTO assay_data (substance, readout_number) VALUES
  ('31 (PVLDLFLELLNE[Aib]LEALKQKLK) [compound 31]', 98),
  ('45 (PVLDEFREKLNE[Aib]LEALKQKLK) [compound 45]', 84),
  ('PVLDLFRELLNELLEALKQKLK [peptide 4]', 95);

Next substance, He (%) mics to be filled in.
Q: What value of measured He (%) mics is listed for PVLDEFREKLNEALEALKQKLK [peptide 94, reference compound] ?
A: 70

====

# Method summary: Circular dichroism: degree of helicity (free, SUVs, micelles, TFE)
# Measurement conditions: percent helicity of free, unbound peptide
Assign class by He (%) free: not lower than 50% means t; lower than 50% means f.

Worked examples follow.
INSERT INTO assay_data (substance, class_name) VALUES
  ('PVLDLFRELLNELLEALKQKLK [peptide 4]', 't'),
  ('55 (PLFRELLNELLEALKQKLK) [compound 55]', 'f'),
  ('LDDLLQKWAEAFNQLLKK [peptide 237, reference compound]', 'f');

Attention now shifts to the item below.
Q: Decide: He (%) free of 240 (Ac-DWLKAFYDKVAEKLKEAF-NH2) [compound 240] >= 50%?
A: f

====

# Method summary: Circular dichroism: degree of helicity (free, SUVs, micelles, TFE)
# Measurement conditions: percent helicity of peptide-micelle complexes
Where no end group is shown, it is not given here. [ ]: non-standard residue; d: D form. Aib = CC(C)(N)C(=O)O
He (%) mics below 80% gives no; He (%) mics at or above it gives yes.

Illustrative cases are given below, each with its answer.
INSERT INTO assay_data (substance, class_name) VALUES
  ('37 (PVLDLFREWLNELLEALKQKLK) [compound 37]', 'no'),
  ('105 (PAADAFREAANEAAEAAKQKAK) [compound 105]', 'no'),
  ('55 (PLFRELLNELLEALKQKLK) [compound 55]', 'no');

Q: Given the entry 91 (PVLDEFRELLNE[Aib]LEALKQKLK) [compound 91] , answer whether its He (%) mics meets or surpasses 80%.
A: yes

Q: Answer whether He (%) mics of PVLDLFRELLNELWEALKQKLK [peptide 28] is greater than or equal to 80%.
A: yes

Q: Form field: He (%) mics at least 80%? Entry: 223 (PVLDAFRELLEALAQLKK) [compound 223]
A: no

Q: Hi, just wondering whether DWLKAFYDKVFEKFKEFF [peptide 245, reference compound] shows He (%) mics of 80% or higher.
A: no

====

# Method summary: Circular dichroism: degree of helicity (free, SUVs, micelles, TFE)
# Measurement conditions: percent helicity of peptide-micelle complexes
Where no end group is shown, it is not given here. [ ]: non-standard residue; d: D form. Nal = non-natural residue; Aib = CC(C)(N)C(=O)O
Measured property: He (%) mics
The reply should be a number in %, with the unit left off.

INSERT INTO results (substance, measured_property, readout_number) VALUES
  ('62 (PVLDEWREKLNE[Aib]LEALKQKLK) [compound 62]', 'He (%) mics', 85),
  ('67 (VLDLFRELLNELLEALKQKLK) [compound 67]', 'He (%) mics', 90);

Now look at this one.
Q: Suppose we examine the substance PVLDLFRELLNELLEZLKQKLK (PVLDLFRELLNELLE[Nal]LKQKLK; not fully specified) [peptide 1] ; what He (%) mics value has been reported?
A: 85
